Target: UniProt:O00329
Assay: HTRF PI3K biochemical assay, delta isoform
Conditions: 0.3 nM enzyme, 100 uM ATP, 5 uM PIP2, form screened per table
With a cut-off of 20 nM, any IC50 strictly below it is called MET; any IC50 meeting it or above is called NOT MET.

| compound | answer-label |
| --- | --- |
| C[C@@H]1C[C@@H]1C(=O)N1CCN(c2nc(-c3cnn(C)c3)ncc2C#N)C[C@H]1C | NOT MET |
| Cn1cc(-c2ncc(C#N)c(N3CC4C[C@H]3CN4CCCF)n2)cn1 (stereo in doubt) | NOT MET |
| CC(C)CNc1nc(-c2cnn(C)c2)nc(N2CCN(C(=O)C3CC3)[C@H](C)C2)c1C#N | NOT MET |
| COCCc1nc(N2CCN(C(=O)C3CC3)[C@H](C)C2)nc(-c2cnn(C)c2)c1C#N | NOT MET |
| C[C@@H]1CN(c2ncc(C#CCO)c(-c3cnn(C)c3)n2)CCN1C(=O)C1CC1 | MET |
| N#Cc1cnc(N2CCc3[nH]ncc3C2)nc1N1CC2C[C@H]1CN2c1cccc(F)c1 (stereo in doubt) | NOT MET |
| CC(C)NC(=O)Nc1nc(-c2cnn(C)c2)nc(N2CCN(C(=O)C3CC3)[C@H](C)C2)c1C#N | MET |
| Cn1cc(-c2ncc(C#N)c(N3CC4C[C@H]3CN4S(=O)(=O)C3CC3)n2)cn1 (stereo in doubt) | NOT MET |

---

Target: PI3Kdelta (Homo sapiens (Human), UniProt O00329)
Sequence (O00329 whole entry, canonical isoform): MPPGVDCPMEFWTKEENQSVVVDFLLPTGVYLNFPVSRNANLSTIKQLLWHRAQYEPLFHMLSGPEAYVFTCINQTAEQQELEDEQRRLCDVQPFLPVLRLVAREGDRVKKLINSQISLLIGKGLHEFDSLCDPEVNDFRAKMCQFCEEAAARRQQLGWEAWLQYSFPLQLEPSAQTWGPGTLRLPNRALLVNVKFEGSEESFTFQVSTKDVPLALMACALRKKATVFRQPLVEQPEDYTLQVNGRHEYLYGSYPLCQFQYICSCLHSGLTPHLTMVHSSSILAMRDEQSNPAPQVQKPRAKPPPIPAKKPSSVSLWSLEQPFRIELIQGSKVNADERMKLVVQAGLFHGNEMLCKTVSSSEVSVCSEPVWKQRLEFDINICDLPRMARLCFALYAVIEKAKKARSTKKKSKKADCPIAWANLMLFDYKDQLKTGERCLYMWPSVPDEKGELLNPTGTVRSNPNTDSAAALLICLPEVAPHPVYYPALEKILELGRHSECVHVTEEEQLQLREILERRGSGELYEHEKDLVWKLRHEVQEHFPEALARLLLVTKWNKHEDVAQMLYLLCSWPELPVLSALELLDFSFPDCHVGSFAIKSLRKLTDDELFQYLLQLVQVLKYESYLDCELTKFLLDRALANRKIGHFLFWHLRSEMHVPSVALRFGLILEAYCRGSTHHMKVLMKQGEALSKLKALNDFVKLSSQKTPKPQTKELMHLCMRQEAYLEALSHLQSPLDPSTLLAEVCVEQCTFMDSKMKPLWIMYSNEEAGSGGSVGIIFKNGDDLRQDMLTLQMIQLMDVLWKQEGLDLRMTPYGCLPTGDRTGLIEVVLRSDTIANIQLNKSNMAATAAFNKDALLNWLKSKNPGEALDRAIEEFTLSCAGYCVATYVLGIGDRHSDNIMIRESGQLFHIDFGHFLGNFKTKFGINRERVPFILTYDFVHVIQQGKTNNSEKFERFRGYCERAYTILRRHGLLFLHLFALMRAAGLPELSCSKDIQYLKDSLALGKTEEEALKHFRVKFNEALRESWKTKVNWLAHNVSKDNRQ
Sequence (P27986 whole entry partner, canonical isoform): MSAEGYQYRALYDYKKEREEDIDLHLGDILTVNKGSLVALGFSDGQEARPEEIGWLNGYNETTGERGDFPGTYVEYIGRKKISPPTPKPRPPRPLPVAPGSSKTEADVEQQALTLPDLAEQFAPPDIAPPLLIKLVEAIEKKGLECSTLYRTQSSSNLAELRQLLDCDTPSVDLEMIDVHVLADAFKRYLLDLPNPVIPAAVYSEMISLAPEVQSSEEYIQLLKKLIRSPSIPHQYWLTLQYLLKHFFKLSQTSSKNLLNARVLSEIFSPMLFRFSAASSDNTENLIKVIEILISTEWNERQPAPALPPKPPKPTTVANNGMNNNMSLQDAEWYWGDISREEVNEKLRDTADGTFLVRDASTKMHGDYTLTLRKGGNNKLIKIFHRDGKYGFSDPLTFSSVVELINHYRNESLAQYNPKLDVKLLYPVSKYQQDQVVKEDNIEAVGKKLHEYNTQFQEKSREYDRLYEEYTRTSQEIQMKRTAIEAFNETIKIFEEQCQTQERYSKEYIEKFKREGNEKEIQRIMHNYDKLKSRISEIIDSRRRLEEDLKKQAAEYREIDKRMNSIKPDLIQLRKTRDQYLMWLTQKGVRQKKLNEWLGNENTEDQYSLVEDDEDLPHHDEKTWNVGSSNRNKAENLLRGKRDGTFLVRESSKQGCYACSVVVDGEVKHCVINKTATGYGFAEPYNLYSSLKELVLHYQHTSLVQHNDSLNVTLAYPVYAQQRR
Assay: HTRF PI3K biochemical assay, delta isoform
Details: 0.3 nM enzyme, 100 uM ATP, 5 uM PIP2, form screened per table
pIC50: −log10 of the molar value.
Recorded pIC50, one value per entry.

| molecule | pIC50 |
| --- | --- |
| N#Cc1cnc(N2CCOCC2)nc1N1CC2C[C@H]1CN2c1cccc(F)c1 (stereo in doubt) | 6.40 |
| Cn1cc(-c2ncc(C#N)c(N3CC4C[C@H]3CN4C(=O)CC3COC3)n2)cn1 (stereo in doubt) | 6.32 |
| C[C@@H]1CN(c2nc(-c3cnn(C)c3)ncc2C#N)CCN1C(=O)C1(C)CC1 | 5.96 |
| Cn1cc(-c2ncc(C#N)c(N3CCN(c4cccc(F)c4)C(C)(C)C3)n2)cn1 | 5.82 |
